- experimental system: CAL PDZ domain (CALP5-His) (UniProt Q9HD26 288-371)
- experiment summary: FP competition, condition A: probe peptide 26 (50 nM) with 100 nM CALP5-His; competitor titrated
pIC50: −log10 of the molar value. [ ]: non-standard residue; d: D form. Cha = N[C@@H](CC1CCCCC1)C(=O)O; Tle = CC(C)(C)[C@H](N)C(=O)O
readout type: pIC50

binder	readout type	result number
Ac-RRFW[dC]CTR[Tle]-OH (cysteine pairing not given here, Synthetic peptide; also called Compd 12; Compound 12) [peptide 12: Ac-Arg-Arg-Phe-Trp-(D-Cys)-Cys-Thr-Arg-Tle-OH]	pIC50	4.99
Ac-RRFWQCTR[Cha]-OH (SMILES CC(=O)N[C@@H](CCCNC(=N)N)C(=O)N[C@@H](CCCNC(=N)N)C(=O)N[C@@H](Cc1ccccc1)C(=O)N[C@@H](Cc1c[nH]c2ccccc12)C(=O)N[C@@H](CCC(N)=O)C(=O)N[C@@H](CS)C(=O)N[C@H](C(=O)N[C@@H](CCCNC(=N)N)C(=O)N[C@@H](CC1CCCCC1)C(=O)O)[C@@H](C)O, Synthetic peptide; also called Compd 3; Compound 3) [peptide 3: Ac-Arg-Arg-Phe-Trp-Gln-Cys-Thr-Arg-Cha-OH]	pIC50	5.10
Ac-RRFW[dP]CTR[Tle]-OH (SMILES CC(=O)N[C@@H](CCCNC(=N)N)C(=O)N[C@@H](CCCNC(=N)N)C(=O)N[C@@H](Cc1ccccc1)C(=O)N[C@@H](Cc1c[nH]c2ccccc12)C(=O)N1CCC[C@@H]1C(=O)N[C@@H](CS)C(=O)N[C@H](C(=O)N[C@@H](CCCNC(=N)N)C(=O)N[C@H](C(=O)O)C(C)(C)C)[C@@H](C)O, Synthetic peptide; also called Compd 11; Compound 11) [peptide 11: Ac-Arg-Arg-Phe-Trp-(D-Pro)-Cys-Thr-Arg-Tle-OH]	pIC50	5.13
Ac-RRFWQCTL[Tle]-OH (not fully specified; printed as Ac-Arg-Arg-Phe-Trp-Gln-Cys-Thr-Leu-Tle-OH, Synthetic peptide; also called Compd 7; Compound 7) [peptide 7: Ac-Arg-Arg-Phe-Trp-Gln-Cys-Thr-Leu-Tle-OH]	pIC50	5.69

a = Ac-RRFWQCTRI-OH (Synthetic peptide; also called Compd 2; Compound 2) [peptide 2: Ac-Arg-Arg-Phe-Trp-Gln-Cys-Thr-Arg-Ile-OH]
b = Ac-RRFWCCTR[Tle]-OH (cysteine pairing not given here, Synthetic peptide; also called Compd 13; Compound 13) [peptide 13: Ac-Arg-Arg-Phe-Trp-Cys-Cys-Thr-Arg-Tle-OH]
Q. Please choose the item with the lower pIC50 value from this pair: a and b The response must carry the label of the picked entry.
A. b
(b: 5.10, a: 5.43)

Data provenance: patent US20210038737A1
